System: α7 integrin (LacZ reporter in α7βgal+/− myoblasts)
Test: Myoblast α7+/LacZ integrin FDG assay (Burkin assay in myoblasts, 96-well)
Type: cell-based, mouse
Details: 10 uM; α7+/LacZ myoblasts, 96-well
Please use Condition met for Burkin Assay in Myoblasts, signal relative to DMSO under 0.9 and Condition not met for everything else, ties included.

Look over these answered cases.
[[record]]
compound = "Cc1ccsc1-c1n[nH]c(=S)n1C1CCCCC1"
category_label = "Condition not met"

[[record]]
compound = "CCOC(=O)C1(Cc2cccc(Cl)c2)CCCN(C(=O)CCSC)C1 (stereo not drawn)"
category_label = "Condition not met"

[[record]]
compound = "COc1cc(C(C(=O)NC2CCCCC2)N(C(=O)c2snc(C(N)=O)c2N)c2ccc(C)cc2)ccc1O (stereo not drawn)"
category_label = "Condition met"

[[record]]
compound = "CN(C)CCNc1ncnc2sc(-c3ccccc3)cc12"
category_label = "Condition met"

[[record]]
compound = "O=S(=O)(NC(=NC1CCCCC1)c1ccccc1F)c1ccccc1"
category_label = "Condition not met"


Query: Given `CC(C)CN(C(=O)c1cccc(Cl)c1)c1c(N)n(Cc2ccccc2)c(=O)[nH]c1=O` , is recorded Burkin Assay in Myoblasts, signal relative to DMSO strictly lower than 0.9?
Response: Condition not met

Query: Would you mind doing CC1CCCCN1c1ncnc(N)c1[N+](=O)[O-] (stereo not drawn) as well?
Response: Condition not met

Query: Same question, CC1CC(C)(C)NC(=S)N1CC(=O)N(C)Cc1ccccc1 (stereo not drawn) this time
Response: Condition not met
